Target: T1, human CEACAM5 (carcinoembryonic antigen, CEA) on cells (human, UniProt P06731 35-685)
T1 construct: endogenous on MKN45 gastric adenocarcinoma cells; full-length cDNA stably transfected in the CHO-K1 clones; also called huCEACAM5; MKN45 cells
T1 sequence: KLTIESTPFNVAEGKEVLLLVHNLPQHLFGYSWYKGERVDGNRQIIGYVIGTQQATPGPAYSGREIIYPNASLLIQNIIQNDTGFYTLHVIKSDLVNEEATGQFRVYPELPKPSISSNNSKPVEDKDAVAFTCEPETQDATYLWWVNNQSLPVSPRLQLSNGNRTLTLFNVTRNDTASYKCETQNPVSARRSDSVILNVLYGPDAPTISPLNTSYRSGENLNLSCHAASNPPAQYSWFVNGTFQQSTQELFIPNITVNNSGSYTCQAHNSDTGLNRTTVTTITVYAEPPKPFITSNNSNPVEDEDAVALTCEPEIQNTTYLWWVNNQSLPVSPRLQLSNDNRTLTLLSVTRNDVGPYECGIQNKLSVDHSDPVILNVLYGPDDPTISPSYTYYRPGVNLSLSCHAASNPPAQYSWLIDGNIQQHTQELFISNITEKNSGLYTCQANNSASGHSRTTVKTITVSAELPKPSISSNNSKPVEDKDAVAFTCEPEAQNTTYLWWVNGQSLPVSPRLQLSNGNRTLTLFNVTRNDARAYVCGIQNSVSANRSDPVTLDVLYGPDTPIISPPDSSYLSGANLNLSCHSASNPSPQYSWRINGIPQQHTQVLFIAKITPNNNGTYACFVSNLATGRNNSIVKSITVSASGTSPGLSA
Test: flow cytometry, MKN45 cells
Parameters: unit not given beside the values
MEASURED_ENDPOINT: AUC
Respond numerically, and do not add a unit to the figure.

P1AE3115 (antibody, IgG1, V domains shown, huIgG1 P329G LALA; also called MFE-H28 / MFE-L25) VH: QVQLVQSGAEVKKPGASVKVSCKASGFNIKDSYMHWVRQAPGQGLEWMGWIDPENGDTEYAPKFQGRVTMTRDTSISTAYMELSRLRSDDTAVYYCNEGTPTGPYYFDYWGQGTLVTVSS VL: EIQMTQSPSSLSASVGDRVTITCRASSSVSYMHWYQQKPGKAPKLLIYSTSNLASGVPSRFSGSGSGTDFTLTISSLQPEDFATYYCQQRSSYPLTFGGGTKLEIK; 10200

Now, please, on to the next binder.
Q: Given the binder P1AE3124 (antibody, IgG1, V domains shown, huIgG1 P329G LALA; also called MFE-H25 / MFE-L24) VH: QVQLVQSGAEVKKPGASVKVSCKASGYTFKDSYMHWVRQAPGQGLEWMGWIDPENGDTEYAPKFQGRVTMTTDTSISTAYMELSRLRSDDTAVYYCNEGTPTGPYYFDYWGQGTLVTVSS VL: DIQMTQSPSSLSASVGDRVTITCRASSSVSYMHWYQQKPGKAPKLLIYSTSNLASGVPSRFSGSGSGTDFTLTISSLQPEDFATYYCQQRSSYPLTFGGGTKLEIK , what is its reported AUC?
A: 847
